In this section we review reported Octet response values for a set of binders.
# TESTED ON: T1, RA peptide (Octet assay of PS621 variants)
# T1 construct: X… with X = R
# ASSAY NAME: Octet (BLI), 30 C
Reply briefly: the number, and no unit.

Ask: Supply reported Octet response belonging to this binder: PS1121 (designed binder, Variant of PS621) MHSKFSHAGRICGAKFKVGEPIYRCKECSFDDTCVLCVNCFNPKDHKGHHVYTTICTEFNNGICDCGDKEAWNHTLFCKAEEG
Reply: 9.5

Ask: Supply reported Octet response belonging to this binder: PS1108 (designed binder, Variant of PS621) MHSKFSHAGRICGAKFKVGEPIYRCKECSFDDTCVLCVNCFNPKDHTGHHVYTTICTERNNGICDCGDKEAWNHTLFCKAEEG
Reply: 8.2

Ask: Supply reported Octet response belonging to this binder: PS1101 (designed binder, Variant of PS621) MHSKFSHAGRICGAKFKVREPIYRCKECSFDDTCVLCVNCFNPKDHTGHHVYTTICTEFNNGICDCGDKEAWNHTLFCKAEEG
Reply: 6.5

Ask: Supply reported Octet response belonging to this binder: PS1109 (designed binder, Variant of PS621) MHSKFSHAGRICGAKFKVGEPIYRCKECSFDDTCVLCVNCFNPKDHTGHHVYTTICTEFNKGICDCGDKEAWNHTLFCKAEEG
Reply: 8.2

More entries:
Ask: Supply reported Octet response belonging to this binder: PS1119 (designed binder, Variant of PS621) MHSKFSHAGRICGAKFKVGEPIYRCKECSFDDTCVLCVNCFNPKDHTGHHVYTTICKEFNNGICDCGDKEAWNHTLFCKAEEG
Reply: 8.6

Source: patent US20240272170A1
